Assay: in vivo
Settings: mouse, po
ASSAY METRIC: LD50 at 168 h (mg/kg)
Only the number, expressed in mg/kg, is required.

input: Bench note: what LD50 at 168 h did Nc1ccc(C(=O)Nc2ccccc2N)cc1 [Substance A, 4-Amino-N-(2'-aminophenyl)-benzamide] show?
output: 625

---

Assay: Distribution coefficient
Type: physicochemical
Conditions: n-octanol/water pH 7.4/20° C.; read-out: log VK (distribution coefficient)
ASSAY METRIC: logD
Field format: numeric only.

input: Recorded logD for Nc1ccc(C(=O)Nc2ccccc2N)cc1 [Substance A, 4-Amino-N-(2'-aminophenyl)-benzamide] , please?
output: 2.2

---

Test: Water solubility
Type: physicochemical
Conditions: dihydrochloride
ASSAY METRIC: solubility (mg/mL)
Give a bare numeral; the unit mg/mL is implied.

input: Reported solubility, compound Cl.Cl.Nc1ccc(C(=O)Nc2ccccc2N)cc1 [dihydrochloride] : ____
output: 40
